# System: Hepatotoxicity
# PROCEDURE TEXT: FDA HLAED, lactate dehydrogenase (LDH) increase
# CONDITION INFO: human
REPORTED PROPERTY: LDH Increase - Activity Score

compound_structure_string=O=C1CN=C(c2ccccc2)c2cc(Cl)ccc2N1CC(F)(F)F assayed_system=Hepatotoxicity value_observed=Inactive
compound_structure_string=Nc1nc2c(ncn2CCC(CO)CO)c(=O)[nH]1 assayed_system=Hepatotoxicity value_observed=Inactive

* * *

# Test system: Hepatotoxicity
# PROCEDURE TEXT: FDA HLAED, serum glutamic pyruvic transaminase (SGPT) increase
# CONDITION INFO: human
REPORTED PROPERTY: SGPT Increase - Number of Reports

compound=COC1=CC(=O)C[C@@H](C)[C@]12Oc1c(Cl)c(OC)cc(OC)c1C2=O value_observed=">= 4"
compound=Cc1cc(C2CCCCC2)n(O)c(=O)c1 value_observed="< 4"
compound=Cc1ncc2n1-c1ccc(Cl)cc1C(c1ccccc1F)=NC2 value_observed="< 4"
compound=N=C(N)c1ccc(OCCCCCOc2ccc(C(=N)N)cc2)cc1 value_observed="< 4"
compound="COCCOC(=O)C1=C(C)NC(C)=C(C(=O)OC(C)C)C1c1cccc([N+](=O)[O-])c1 (configuration not stated)" value_observed=">= 4"
compound=O=C1CC2(CCCC2)CC(=O)N1CCCCN1CCN(c2ncccn2)CC1 value_observed=">= 4"
compound="CCC(C)n1ncn(-c2ccc(N3CCN(c4ccc(OCC5COC(Cn6cncn6)(c6ccc(Cl)cc6Cl)O5)cc4)CC3)cc2)c1=O (configuration not stated)" value_observed=">= 4"
